In this section we review reported residual activity values for a set of molecules.
target: JAK2 JH1 JH2 (human); assay: radiometric filter-binding kinase assay, Kinase HotSpot; conditions: compound 0.5 µM; ATP 10 µM
Field note: include the unit after the figure.

Example results:
- CHEMICAL STRING: "Nc1ncnc2c1c(-c1ccc(Oc3ccccc3)cc1)cn2C1CCCC1"
  residual activity: "104%"
- CHEMICAL STRING: "O=C1NC(=O)C(c2cn(CCCn3ccnc3)c3ccccc23)=C1Nc1ccccc1"
  residual activity: "84.3%"
- CHEMICAL STRING: "Cc1[nH]c(/C=C2\\C(=O)Nc3ccc(S(=O)(=O)N(C)c4cccc(Cl)c4)cc32)c(C)c1C(=O)N1CCN(C)CC1"
  residual activity: "40.6%"
- CHEMICAL STRING: "COc1ccc(COc2ccc(Cc3cnc(N)nc3N)cc2OC)cc1"
  residual activity: "89.2%"
- CHEMICAL STRING: "CNC(=O)c1cc(Oc2ccc(NC(=O)Nc3ccc(Cl)c(C(F)(F)F)c3)cc2)ccn1"
  residual activity: "98.2%"
- CHEMICAL STRING: "O=c1cc(N2CCOCC2)oc2c1ccc1ccccc12"
  residual activity: "94.9%"
- CHEMICAL STRING: "Cc1ccc(NC2=CC(=O)c3sc(C)nc3C2=O)cc1"
  residual activity: "99.1%"
- CHEMICAL STRING: "COc1ccc2c(c[n+](C)c3c4cc5c(cc4ccc23)OCO5)c1OC"
  residual activity: "102%"
- CHEMICAL STRING: "N#CC(C#N)=C(N)/C(C#N)=C/c1ccc(O)cc1"
  residual activity: "102%"
- CHEMICAL STRING: "CC#CC(=O)Nc1cc2c(Nc3ccc(F)c(Cl)c3)ncnc2cn1"
  residual activity: "97.4%"

Request: Find the recorded residual activity belonging to CCC(=O)Nc1ccc2ncnc(Nc3cccc(Br)c3)c2c1 and report it.
Response: 103%

Request: # iterate: CCN(CC)CCNC(=O)c1c(C)[nH]c(/C=C2\C(=O)Nc3ccc(Cl)cc32)c1C
Response: 54%

Request: # iterate: O=C(Nc1cccc(Nc2nccc(Nc3cccc(C(F)(F)F)c3)n2)c1)C1CC1
Response: 47.7%

Request: # iterate: Nc1ccc2ncnc(NCCc3ccc(Oc4ccccc4)cc3)c2c1
Response: 103%

Request: # iterate: O=C1Nc2ccc(Cl)cc2/C1=C/c1cc(Cl)c(O)c(Cl)c1
Response: 91.1%

Request: # iterate: CCOC(=O)c1c(C)[nH]c(/C=C2\C(=O)Nc3ccccc32)c1C
Response: 96.7%

Request: # iterate: COc1cc2ncnc(Nc3cccc(Cl)c3)c2cc1OC
Response: 97.4%

Request: # iterate: c1ccc(-c2n[nH]c3c2oc2ccccc23)cc1
Response: 89.8%

Request: # iterate: CC[n+]1c(/C=C/N(C)c2ccccc2)n(-c2ccccc2)c2ccc(-c3nc4ccccc4s3)cc21
Response: 98.8%
